target: Adenosine receptor A2b (Homo sapiens); assay: Agonist activity at human A2B expressed in CHO cells assessed as stimulation of cAMP production at 1 uM by alphascreen assay relative to NECA; assay type: functional, cell-based
Outcome measure: Efficacy (%)

Past entries and their recorded results:
| Molecule smiles | Units text | Measurement |
| --- | --- | --- |
| COC(=O)c1cccc(CSc2nc(N)c(C#N)c(-c3cccs3)c2C#N)c1 | % | 62 |
| N#CCSc1nc(N)c(C#N)c(-c2ccco2)c1C#N | % | 1 |
| N#Cc1c(N)nc(OCCO)c(C#N)c1-c1ccco1 | % | 11 |
| CC(=O)Nc1nc(SCCO)c(C#N)c(-c2ccco2)c1C#N | % | 3 |
| COC(=O)c1ccc(CSc2nc(N)c(C#N)c(-c3ccco3)c2C#N)o1 | % | 7 |

I = N#Cc1cccc(CSc2nc(N)c(C#N)c(-c3ccco3)c2C#N)c1
II = N#Cc1c(N)nc(SCC(=O)OCc2ccccc2)c(C#N)c1-c1ccco1
Query: Hi there, can you help? I need to know whether I or II has lower measured Efficacy. Please indicate the selected item by its label.
Reply: I
(I: 7%, II: 10%)

A = N#Cc1c(N)nc(SCCO)c(C#N)c1-c1ccsc1
B = N#Cc1c(N)nc(SCc2cccnc2)c(C#N)c1-c1ccco1
C = N#Cc1c(N)nc(SCc2cccc(CO)c2)c(C#N)c1-c1ccco1
Query: Order the items by recorded Efficacy; the first position goes to the largest value. Please list the labels according to the requested order.
Reply: A, C, B

a = N#Cc1c(N)nc(SCCO)c(C#N)c1-c1ccco1
b = N#Cc1c(NC2CC2)nc(SCCO)c(C#N)c1-c1ccco1
c = N#Cc1c(Nc2ccc(I)cc2)nc(SCCO)c(C#N)c1-c1ccco1
Query: Order the items by recorded Efficacy; the first position goes to the largest value. Please list the labels according to the requested order.
Reply: a, b, c

P = N#Cc1c(NCc2ccccc2)nc(SCCO)c(C#N)c1-c1ccco1
Q = COC(=O)c1cccc(CSc2nc(N)c(C#N)c(-c3ccoc3)c2C#N)c1
Query: Hi there, can you help? I need to know whether P or Q has lower measured Efficacy. Please indicate the selected item by its label.
Reply: P
